STUDY_SYSTEM: Muscarine M1 (GPCR-A-MA-ACH M1) (Homo sapiens, UniProt P11229)
Construct: expressed in transfected cells; host or cells: CHO cells
Sequence (P11229 whole entry): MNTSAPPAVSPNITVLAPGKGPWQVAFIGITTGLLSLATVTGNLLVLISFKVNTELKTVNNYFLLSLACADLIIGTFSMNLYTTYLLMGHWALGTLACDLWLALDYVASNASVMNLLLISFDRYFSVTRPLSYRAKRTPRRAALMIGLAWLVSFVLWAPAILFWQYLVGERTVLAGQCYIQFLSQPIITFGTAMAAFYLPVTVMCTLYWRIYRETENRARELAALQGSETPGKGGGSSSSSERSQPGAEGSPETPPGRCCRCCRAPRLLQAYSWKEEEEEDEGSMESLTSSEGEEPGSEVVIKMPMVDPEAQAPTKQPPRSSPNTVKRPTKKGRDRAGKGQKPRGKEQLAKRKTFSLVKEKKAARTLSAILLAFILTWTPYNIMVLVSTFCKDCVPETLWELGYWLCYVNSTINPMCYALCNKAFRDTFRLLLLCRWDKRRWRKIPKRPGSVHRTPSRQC
ASSAY_DETAILS: Muscarine M1 cell-based functional assay (CHO cells, Ca2+ - FLIPR Fluorimetry)
PARTICULARS: read-out: Cell funct. Musc. M1 Agonism pEC50 (converted)
PROPERTY: EC50 (nM)
Value expressed in nM; do not type the unit.

COMPOUND	STUDY_SYSTEM	UNIT_ABBREV	EC50
CSc1c[nH]nc1C1CN2CCC1CC2 (stereo not drawn) [Compound 49C]	Muscarine M1 (GPCR-A-MA-ACH M1) (Homo sapiens, UniProt P11229)	nM	79.4
CCCCCCSc1c[nH]nc1C1CN2CCC1CC2 (stereo not drawn) [Compound 49F]	Muscarine M1 (GPCR-A-MA-ACH M1) (Homo sapiens, UniProt P11229)	nM	794
CCCCOc1c[nH]nc1C1CN2CCC1CC2 (stereo not drawn) [Compound 52A]	Muscarine M1 (GPCR-A-MA-ACH M1) (Homo sapiens, UniProt P11229)	nM	20
CCCCCOc1c[nH]nc1C1CN2CCC1CC2 (stereo not drawn) [Compound 52C]	Muscarine M1 (GPCR-A-MA-ACH M1) (Homo sapiens, UniProt P11229)	nM	12.6
FC(F)=CCCSc1c[nH]nc1C1CN2CCC1CC2 (stereo not drawn) [Compound 49I]	Muscarine M1 (GPCR-A-MA-ACH M1) (Homo sapiens, UniProt P11229)	nM	3.16
CCCCCSc1c[nH]nc1C1CN2CCC1CC2 (stereo not drawn) [Compound 49B]	Muscarine M1 (GPCR-A-MA-ACH M1) (Homo sapiens, UniProt P11229)	nM	10
CCCCSc1c[nH]nc1C1CN2CCC1CC2 (stereo not drawn) [Compound 49A]	Muscarine M1 (GPCR-A-MA-ACH M1) (Homo sapiens, UniProt P11229)	nM	10
CCCOc1c[nH]nc1C1CN2CCC1CC2 (stereo not drawn) [Compound 52B]	Muscarine M1 (GPCR-A-MA-ACH M1) (Homo sapiens, UniProt P11229)	nM	7.94

Record CCCSc1c[nH]nc1C1CN2CCC1CC2 (stereo not drawn) [Compound 49E] / Muscarine M1 (GPCR-A-MA-ACH M1) (Homo sapiens, UniProt P11229), EC50 recorded as 10

Kindly note: Muscarine M1 (GPCR-A-MA-ACH M1) (Homo sapiens, UniProt P11229), CC(C)CCSc1c[nH]nc1C1CN2CCC1CC2 (stereo not drawn) [Compound 49H] , EC50 value reported: 50.1

GET /values?item= Ic1c[nH]nc1[C@@H]1CN2CCC[C@H]1C2 [Compound 59] &system= Muscarine M1 (GPCR-A-MA-ACH M1) (Homo sapiens, UniProt P11229) returns EC50: 79.4

Record CCSc1c[nH]nc1C1CN2CCC1CC2 (stereo not drawn) [Compound 49D] / Muscarine M1 (GPCR-A-MA-ACH M1) (Homo sapiens, UniProt P11229), EC50 recorded as 39.8
